Please respond with reported TGI for every item in the list.
System: NCI-H522 lung
protocol-notes: NCI tumour cell line growth inhibition, 48 h
Give bare numbers, in µM.

INSERT INTO results (compound, measure, test_result) VALUES
  ('CCc1cccc(CC)c1Nc1nc2c(s1)C(=O)c1ccccc1C2=O', 'TGI', 83.3),
  ('CCCCCCCCCCCCOC1C(CNCC2OC3OC(C)(C)OC3C2NC(=O)Nc2ccc(C(F)(F)F)cc2)OC2OC(C)(C)OC21 (stereo unspecified)', 'TGI', 9.21),
  ('COc1cc[c]([Sb]([Br])([CH]=C(C)C)([CH]=C(C)C)[CH]=C(C)C)cc1', 'TGI', 9.23),
  ('COc1ccc(C2=CC(c3ccc(Oc4ccnc5cc(Cl)ccc45)c(OC)c3)c3c(nc(OC)[nH]c3=O)N2)cc1 (stereo unspecified)', 'TGI', 47.2),
  ('O=c1oc2ccccc2cc1-c1csc(Nc2cc(Cl)cc(Cl)c2)n1', 'TGI', 96.6);

Go through the list and state TGI for each entry.
1. O=C(N[C@@H]1C=CCC[C@@H]1c1ccccc1)OCc1ccccc1
2. CCOC(=O)c1c(C)noc1/N=N/N(CCO)CCO

1: 30.9; 2: 70.7
